# assay system: T1, Nt-GCGR-hFc (human, UniProt P47871 26-136)
# T1 construct: domain: N-terminal domain; also called Nt-GCGR-Fc; recombinant N-terminal domain of GCGR; not shown: hFc
# T1 sequence (P47871 26-136): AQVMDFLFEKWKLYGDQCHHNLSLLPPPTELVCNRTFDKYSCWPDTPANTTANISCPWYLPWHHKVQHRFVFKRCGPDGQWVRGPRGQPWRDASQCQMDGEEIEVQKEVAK
# assay text: scFv binding ELISA, periplasmic extract on coated Nt-GCGR
value kind: ScFv binding ELISA signal

binder: scFv D2 (scFv) ELQLVESGGGLVQPGGSLRLSCATSGFTFSNYYMSWVRQAPGKGPEWVSSIYSDLSTTYYADSVKGRFTISRDRAKNTLYLQMNSLKSEDTAVYYCARLSTVAGVDYWGKGTLVTVSSSYELTQSPSVSVALRQAAKITCGGNDIGSKSAQWYQQKPGQAPVLVIYADSRRPSGIPERFSGSNSGNTATLTISGAQAEDEADYYCQVWDSSANAAVFGGGTHLTVLG
observed value: 0.52
//
binder: scFv C12 (scFv, part only; not given: GS linker, not shown: small tags and cut ends) scFv, part: ELQVVESGGGLVPGGSLRLSCAASGFRVSVNAMSWVRQAPGKGLEWVSHIGSGGITGYADSVKGRFTISRDSAKNTLYLQMNSLKPEDTAVYYCTKRSSGYAWGQGTQVTVSSQAGLTQLPSVSGSPGQKITISCTGSSNNIGAGYSVQWFQQVPGSPPRLLIDGATNRDSGVPDRFSDSRSGSSASLTITGLQAEDEADYYWMLQQPQGVLCSAEGPI
observed value: 2.56
//
binder: scFv C2 (scFv) QLQLVESGGGLQQPGGSLRLSCAASGFTFSSYAMGWVRQAPGKGLEWISIILNDGHRTYYTDSVKGRFTISRDNAKDTLSLQMNSLKPEDTAVYFCVKYVLNWAISDWGQGTQVTVSSQSVLTQPPSVSGSPGKTVTISCAGTSSDVGYGNYVSWYQQLPGMAPKLLIYNANKRASGITDRFSASKSGNTASLTISGLQSGDEAVYYCASYRYRDNAVFGGGTHLTVLG
observed value: 0.465
